- Target System: human P2Y2 receptor (Homo sapiens, UniProt P41231)
- Sequence (P41231 whole entry): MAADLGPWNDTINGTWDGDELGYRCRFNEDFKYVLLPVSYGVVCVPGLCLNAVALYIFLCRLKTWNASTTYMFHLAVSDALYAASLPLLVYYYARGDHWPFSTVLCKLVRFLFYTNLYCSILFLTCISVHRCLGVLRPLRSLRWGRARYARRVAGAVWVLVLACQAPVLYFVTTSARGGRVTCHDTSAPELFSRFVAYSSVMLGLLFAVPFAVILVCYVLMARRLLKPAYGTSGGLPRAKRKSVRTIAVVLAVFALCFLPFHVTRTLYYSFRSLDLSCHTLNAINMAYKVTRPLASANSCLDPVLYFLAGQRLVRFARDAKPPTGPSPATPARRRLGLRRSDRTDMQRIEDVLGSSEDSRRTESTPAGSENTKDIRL
- Protocol Text: PLC activation
- Assay type: cell-based
pEC50: −log10 of the molar value.

{"columns": ["Substance Smiles", "Target System", "pEC50"],
 "data": [
  ["CO/N=c1/ccn([C@@H]2O[C@H](COP(=O)(O)CP(=O)(O)O)[C@@H](O)[C@H]2O)c(=O)[nH]1", "human P2Y2 receptor (Homo sapiens, UniProt P41231)", "< 5.00"]
]}

====

- Target System: human P2Y6 receptor (Homo sapiens, UniProt Q15077)
- Sequence (Q15077 whole entry): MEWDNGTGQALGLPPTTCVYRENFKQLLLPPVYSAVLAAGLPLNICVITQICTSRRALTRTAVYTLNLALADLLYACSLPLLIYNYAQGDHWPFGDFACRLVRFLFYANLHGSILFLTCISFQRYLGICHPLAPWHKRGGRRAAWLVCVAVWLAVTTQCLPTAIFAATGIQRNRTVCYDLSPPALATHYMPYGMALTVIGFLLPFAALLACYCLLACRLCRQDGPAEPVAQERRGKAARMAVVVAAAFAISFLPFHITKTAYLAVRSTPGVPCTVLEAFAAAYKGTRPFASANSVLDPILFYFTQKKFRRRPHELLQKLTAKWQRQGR
- Protocol Text: PLC activation
- Assay type: cell-based
- Condition Summary: PLC activation, 1321N1 cells

{"columns": ["Substance Smiles", "activity at the P2Y6 receptor"],
 "data": [
  ["CCN(CC)CC.O=C(Cn1c(=O)ccn([C@@H]2O[C@H](COP(=O)(O)OP(=O)(O)OP(=O)(O)O[C@H]3O[C@H](CO)[C@@H](O)[C@H](O)[C@H]3O)[C@@H](O)[C@H]2O)c1=O)c1ccccc1", "only weakly active"],
  ["CCN(CC)CC.O=c1ccn([C@@H]2O[C@H](COP(=O)(O)CP(=O)(O)OP(=O)(O)O[C@H]3O[C@H](CO)[C@@H](O)[C@H](O)[C@H]3O)[C@@H](O)[C@H]2O)c(=O)[nH]1", "only weakly active"]
]}
